# Lookup of reported Cell Viability keyed by entry
tested on: Colon cancer organoid; assay: Optimized Dual-Glo assay to identify co-culture induced drug vulnerabilities using donated chemical probes and chemogenomics kinase set in O06 CRC organoid and F06 CAF mono and co-culture. […] Cell viability is reported both mono and co-culture models.; assay type: functional, Homo sapiens; parameters: dose or concentration left out as unconfirmed; conditions: Culture type Co-Culture; Transduced with Renilla-dsRed lentivirus
# number only, unit % dropped from output

Example entries begin here.
{"COMPOUND": "FC(F)(F)c1ccc2c(c1)nc(-c1cccnc1)n2C1CC1 [MSD-CYP11B2-Negative-control]", "ASSAY_ENDPOINT": "Cell Viability", "VALUE": 83.1787}
{"COMPOUND": "CO[C@H]1CNC[C@@H](OCC2CCC(F)(F)CC2)[C@@H]1Nc1ncc(-c2cncc(C)c2)c2cc(C)c(=O)[nH]c12", "ASSAY_ENDPOINT": "Cell Viability", "VALUE": 138.476}
{"COMPOUND": "CCC(F)(F)c1cc(N2CCC(S(C)(=O)=O)CC2)nc2sc(C(N)=O)c(N)c12", "ASSAY_ENDPOINT": "Cell Viability", "VALUE": 92.3898}

# input for lookup
# input Dear colleague, I am looking for the recorded Cell Viability of the following compound: Cc1cc(CN)cc(C)c1-c1ncn(C)c1-c1cncn1C
# output 141.638

All values here come from ChEMBL document CHEMBL5674860.
